Tested on: NCI-H2126
Experiment: relative viability (nuclei count vs DMSO), 5 days (fraction); higher = more cells survive
Settings: first compound 2 µM
MEASURED_QUANTITY: relative viability
// no unit string in output, number only

Solved cases (2 shown):
>  <COMPOUND>
CN1CCN(CCOc2cc(OC3CCOCC3)c3c(Nc4c(Cl)ccc5c4OCO5)ncnc3c2)CC1 [Saracatinib] + Nc1ncn([C@H]2C[C@H](O)[C@@H](CO)O2)c(=O)n1 [Decitabine] (partner 2 µM)

>  <TARGET_OR_SYSTEM>
NCI-H2126

>  <relative viability>
0.454

$$$$
>  <COMPOUND>
CN1CCN(CCOc2cc(OC3CCOCC3)c3c(Nc4c(Cl)ccc5c4OCO5)ncnc3c2)CC1 [Saracatinib] + Nc1nc2[nH]cc(CCc3ccc(C(=O)N[C@@H](CCC(=O)O)C(=O)O)cc3)c2c(=O)[nH]1 [Pemetrexed] (partner 0.2 µM)

>  <TARGET_OR_SYSTEM>
NCI-H2126

>  <relative viability>
0.558

$$$$

**Q:** Note down relative viability recorded for Cc1csc(=NC2CCCCC2)n1/N=C/c1ccc(O)c(O)c1O [MIM1] + CS(=O)(=O)CCNCc1ccc(-c2ccc3ncnc(Nc4ccc(OCc5cccc(F)c5)c(Cl)c4)c3c2)o1 [Lapatinib] (partner 2 µM)
**A:** 0.77

====

Tested on: NCI-H1563
Assay: relative viability (nuclei count vs DMSO), 5 days (fraction); higher = more cells survive
Details: first compound 0.6325 µM
MEASURED_QUANTITY: relative viability
API doc: respond with a numeric literal and nothing else, no unit.

>  <MOLECULE>
Cc1csc(=NC2CCCCC2)n1/N=C/c1ccc(O)c(O)c1O [MIM1] + C[C@]1(O)C[C@@H](c2nc(-c3ccc4ccc(-c5ccccc5)nc4c3)c3c(N)nccn32)C1 [Linsitinib] (partner 1 µM)

>  <TARGET_OR_SYSTEM>
NCI-H1563

>  <MEASURED_QUANTITY>
relative viability

>  <NUMBER>
1.29

$$$$

Proceeding to the next molecule to report its relative viability.
**Q:** Provide only the value of recorded relative viability for CN1CCN(CCOc2cc(OC3CCOCC3)c3c(Nc4c(Cl)ccc5c4OCO5)ncnc3c2)CC1 [Saracatinib] + Nc1nc2[nH]cc(CCc3ccc(C(=O)N[C@@H](CCC(=O)O)C(=O)O)cc3)c2c(=O)[nH]1 [Pemetrexed] (partner 0.2 µM)
**A:** 0.742

====

Test system: NCI-H1563
Assay: relative viability (nuclei count vs DMSO), 5 days (fraction); higher = more cells survive
Conditions: first compound 0.002 µM
MEASURED_QUANTITY: relative viability

>  <MOLECULE>
CCNC(=O)c1noc(-c2cc(C(C)C)c(O)cc2O)c1-c1ccc(CN2CCOCC2)cc1 [Luminespib] + Nc1nc2[nH]cc(CCc3ccc(C(=O)N[C@@H](CCC(=O)O)C(=O)O)cc3)c2c(=O)[nH]1 [Pemetrexed] (partner 0.2 µM)

>  <RESULT>
0.808

$$$$
>  <MOLECULE>
CCNC(=O)c1noc(-c2cc(C(C)C)c(O)cc2O)c1-c1ccc(CN2CCOCC2)cc1 [Luminespib] + COc1cc2c(Oc3ccc(NC(=O)C4(C(=O)Nc5ccc(F)cc5)CC4)cc3F)ccnc2cc1OCCCN1CCOCC1 [Foretinib] (partner 0.25 µM)

>  <RESULT>
1.01

$$$$
>  <MOLECULE>
CCNC(=O)c1noc(-c2cc(C(C)C)c(O)cc2O)c1-c1ccc(CN2CCOCC2)cc1 [Luminespib] + CC(C)C[C@H](NC(=O)[C@H](Cc1ccccc1)NC(=O)c1cnccn1)B(O)O [Bortezomib] (partner 0.002 µM)

>  <RESULT>
0.956

$$$$
>  <MOLECULE>
CCNC(=O)c1noc(-c2cc(C(C)C)c(O)cc2O)c1-c1ccc(CN2CCOCC2)cc1 [Luminespib] + Cc1nc(Nc2ncc(C(=O)Nc3c(C)cccc3Cl)s2)cc(N2CCN(CCO)CC2)n1 [Dasatinib] (partner 0.075 µM)

>  <RESULT>
0.453

$$$$

**Q:** Consider the molecule CCNC(=O)c1noc(-c2cc(C(C)C)c(O)cc2O)c1-c1ccc(CN2CCOCC2)cc1 [Luminespib] + N=C(N)NC(=N)NCCc1ccccc1 [Phenformin] (partner 250 µM) and give its recorded relative viability.
**A:** 0.66

**Q:** Give me measured relative viability, please, for this molecule: CCNC(=O)c1noc(-c2cc(C(C)C)c(O)cc2O)c1-c1ccc(CN2CCOCC2)cc1 [Luminespib] + CS(=O)(=O)N1CCN(Cc2cc3nc(-c4cccc5[nH]ncc45)nc(N4CCOCC4)c3s2)CC1 [Pictilisib] (partner 1 µM)
**A:** 0.721

====

System: RERF-LC-KJ
Experiment: relative viability (nuclei count vs DMSO), 5 days (fraction); higher = more cells survive
Conditions: first compound 0.6325 µM
Listing of entries alongside the reported relative viability.
Output spec: single numeric token, no unit.

Known relative viability results, listed for orientation:
>  <COMPOUND>
Cc1csc(=NC2CCCCC2)n1/N=C/c1ccc(O)c(O)c1O [MIM1] + O=C(CCCCCCC(=O)Nc1ccccc1)NO [Vorinostat] (partner 1 µM)

>  <relative viability>
0.558

$$$$
>  <COMPOUND>
Cc1csc(=NC2CCCCC2)n1/N=C/c1ccc(O)c(O)c1O [MIM1] + CC1(C)CCC(c2ccc(Cl)cc2)=C(CN2CCN(c3ccc(C(=O)NS(=O)(=O)c4ccc(N[C@H](CCN5CCOCC5)CSc5ccccc5)c(S(=O)(=O)C(F)(F)F)c4)cc3)CC2)C1 [Navitoclax] (partner 0.5 µM)

>  <relative viability>
0.725

$$$$
>  <COMPOUND>
CN1CCN(CCOc2cc(OC3CCOCC3)c3c(Nc4c(Cl)ccc5c4OCO5)ncnc3c2)CC1 [Saracatinib] + Cc1cc(Nc2cc(N3CCN(C)CC3)nc(Sc3ccc(NC(=O)C4CC4)cc3)n2)n[nH]1 [Tozasertib] (partner 0.1 µM)

>  <relative viability>
0.497

$$$$
>  <COMPOUND>
CN1CCN(CCOc2cc(OC3CCOCC3)c3c(Nc4c(Cl)ccc5c4OCO5)ncnc3c2)CC1 [Saracatinib] + Nc1nc2[nH]cc(CCc3ccc(C(=O)N[C@@H](CCC(=O)O)C(=O)O)cc3)c2c(=O)[nH]1 [Pemetrexed] (partner 0.2 µM)

>  <relative viability>
0.47

$$$$
>  <COMPOUND>
Cc1csc(=NC2CCCCC2)n1/N=C/c1ccc(O)c(O)c1O [MIM1] + COc1cccc2cc(-c3nc([C@H]4CC[C@H](C(=O)O)CC4)n4ncnc(N)c34)[nH]c12 [OSI-027] (partner 0.5 µM)

>  <relative viability>
0.629

$$$$
>  <COMPOUND>
Cc1csc(=NC2CCCCC2)n1/N=C/c1ccc(O)c(O)c1O [MIM1] + CCNC(=O)c1noc(-c2cc(C(C)C)c(O)cc2O)c1-c1ccc(CN2CCOCC2)cc1 [Luminespib] (partner 0.01 µM)

>  <relative viability>
1.26

$$$$
>  <COMPOUND>
CN1CCN(CCOc2cc(OC3CCOCC3)c3c(Nc4c(Cl)ccc5c4OCO5)ncnc3c2)CC1 [Saracatinib] + N=C(N)NC(=N)NCCc1ccccc1 [Phenformin] (partner 250 µM)

>  <relative viability>
0.313

$$$$

**Q:** Answer with reported relative viability of CN1CCN(CCOc2cc(OC3CCOCC3)c3c(Nc4c(Cl)ccc5c4OCO5)ncnc3c2)CC1 [Saracatinib] + C[C@@H](Oc1cc(-c2cnn(C3CCNCC3)c2)cnc1N)c1c(Cl)ccc(F)c1Cl [Crizotinib] (partner 1 µM)
**A:** 0.945

====

Test system: NCI-H2347
Assay: relative viability (nuclei count vs DMSO), 5 days (fraction); higher = more cells survive
Conditions: first compound 8 µM
In this section we review reported relative viability values for a set of molecules.
Enter the number alone.

Here's what some known entries look like.
>  <MOLECULE>
Nc1cccc2c1CN(C1CCC(=O)NC1=O)C2=O (stereo not given) [Lenalidomide] + Nc1nc2[nH]cc(CCc3ccc(C(=O)N[C@@H](CCC(=O)O)C(=O)O)cc3)c2c(=O)[nH]1 [Pemetrexed] (partner 0.2 µM)

>  <TARGET_OR_SYSTEM>
NCI-H2347

>  <MEASURED_QUANTITY>
relative viability

>  <NUMBER>
0.431

$$$$
>  <MOLECULE>
Nc1cccc2c1CN(C1CCC(=O)NC1=O)C2=O (stereo not given) [Lenalidomide] + Cc1nc(NC(=O)N2CCC[C@H]2C(N)=O)sc1-c1ccnc(C(C)(C)C(F)(F)F)c1 [Alpelisib] (partner 2 µM)

>  <TARGET_OR_SYSTEM>
NCI-H2347

>  <MEASURED_QUANTITY>
relative viability

>  <NUMBER>
0.875

$$$$
>  <MOLECULE>
Nc1cccc2c1CN(C1CCC(=O)NC1=O)C2=O (stereo not given) [Lenalidomide] + O=C(c1cc(Cc2n[nH]c(=O)c3ccccc23)ccc1F)N1CCN(C(=O)C2CC2)CC1 [Olaparib] (partner 8 µM)

>  <TARGET_OR_SYSTEM>
NCI-H2347

>  <MEASURED_QUANTITY>
relative viability

>  <NUMBER>
0.509

$$$$
>  <MOLECULE>
Nc1cccc2c1CN(C1CCC(=O)NC1=O)C2=O (stereo not given) [Lenalidomide] + O=C(CCCCCCC(=O)Nc1ccccc1)NO [Vorinostat] (partner 1 µM)

>  <TARGET_OR_SYSTEM>
NCI-H2347

>  <MEASURED_QUANTITY>
relative viability

>  <NUMBER>
0.448

$$$$

Then there is this molecule:
**Q:** Assign relative viability to the following record: Nc1cccc2c1CN(C1CCC(=O)NC1=O)C2=O (stereo not given) [Lenalidomide] + Nc1ncn([C@H]2C[C@H](O)[C@@H](CO)O2)c(=O)n1 [Decitabine] (partner 2 µM)
**A:** 0.566

src = the supplement of paper PMC10307832
